- ASSAY_SYSTEM: KRAS G12V (Homo sapiens, UniProt P01116, G12V)
- Construct: SW620-KRAS (G12V)-HiBit-KI cell (Pharmaron); host or cells: SW620-KRAS (G12V)-HiBit-KI cells (HiBiT knock-in at the endogenous KRAS locus)
- Sequence (P01116 1-188 isoform P01116-2 G12V): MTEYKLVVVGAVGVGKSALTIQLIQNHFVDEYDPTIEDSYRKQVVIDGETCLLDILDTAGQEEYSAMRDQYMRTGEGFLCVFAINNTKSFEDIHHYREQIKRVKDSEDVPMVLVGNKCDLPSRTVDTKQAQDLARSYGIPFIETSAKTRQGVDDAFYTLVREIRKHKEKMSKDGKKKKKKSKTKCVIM
- TEST_DETAILS: KRAS G12V HiBit assay
- Format: cell-based
- RECORDED_CONDITIONS: SW620-KRAS (G12V)-HiBit-KI cells, compound treatment for 24 hours, class symbols
# DC50 listing for each entry below
EXPERIMENTAL_ENDPOINT: DC50

C[C@H]1CN(CCOCCOCCOc2ccc3c(c2)n(C)c(=O)n3C2CCC(=O)NC2=O)CCCN1c1nccc(-c2noc([C@]3(C)CCCc4sc(N)c(C#N)c43)n2)n1 (some centres unmarked) :: > 100 nM
C#Cc1c(F)ccc2cc(O)cc(-c3ncc4c(N5CCC[C@@](C)(O)C5)nc(OC[C@@]56CCCN5[C@H](COC(=O)N5CC7(CCC(N8CCC(c9ccc%10c(c9)n(C)c(=O)n%10C9CCC(=O)NC9=O)CC8)CC7)C5)CC6)nc4c3F)c12 (some centres unmarked) :: 10 to 100 nM
C#Cc1c(F)ccc2cc(O)cc(-c3ncc4c(N5CCC[C@@](C)(O)C5)nc(OCC5(CN6CC7(C6)CN(c6ccc8c(c6)n(C)c(=O)n8C6CCC(=O)NC6=O)C7)CC5)nc4c3F)c12 (some centres unmarked) :: > 100 nM
CCc1c(F)ccc2cc(O)cc(-c3ncc4c(N5CCC[C@@](C)(O)C5)nc(OC[C@@]56CCCN5[C@H](COC(=O)Nc5ccc(N7CCC(c8ccc9c(c8)n(C)c(=O)n9C8CCC(=O)NC8=O)CC7)cc5)CC6)nc4c3F)c12 (some centres unmarked) :: < 10 nM
C#Cc1c(F)ccc2cccc(-c3ncc4c(N5CCC[C@@](C)(O)C5)nc(OCC5(CN6CCN(CC7CCN(c8cccc9c8n(C)c(=O)n9C8CCC(=O)NC8=O)CC7)CC6)CC5)nc4c3F)c12 (some centres unmarked) :: > 100 nM
